Data origin: ChEMBL document CHEMBL1146554

system: Radical scavenging activity; assay: Antioxidant activity assessed as DPPH radical scavenging activity at 115 uM after 30 mins; type: functional
observable: Activity (%)
Numeric only. Scale: %

Q: Tell me measured Activity for C/C(=C/C(=O)C/C(C)=C/Cc1cc(O)cc(C)c1O)CC/C=C(\C)Cc1cc(C)co1 please.
Result: 95.7

Q: Tell me measured Activity for Cc1c(C)c2c(c(C)c1O)CC[C@@](C)(CCC[C@H](C)CCC[C@H](C)CCCC(C)C)O2 please.
Result: 94.9

Q: Tell me measured Activity for CC(C)=CCC/C(C)=C/C(=O)C/C(C)=C/Cc1cc(O)cc(C)c1O please.
Result: 59.1

Q: Tell me measured Activity for CC(C)=CC(O)C/C(C)=C/CC/C(C)=C\C(=O)C/C(C)=C/Cc1cc(O)cc(C)c1O (centres undefined) please.
Result: 95.5
